meta.source: patent US8486991B2

Assay: In vivo pharmacokinetics, monkeys
Set-up: species or system monkey
Conditions: male, monkey, in vivo, po, 5 mg/kg, Monkey, 5 mg/kg PO-Fed, 3M (males); read-out: BA (absolute oral bioavailability)
quantity.kind: bioavailability (%)

> print(dat)
                         compound.structure  observed
1  CO[P@](=O)(c1cc(C)cc(/C=C/C#N)c1)c1c(C(N)=O)[nH]c2ccc(Cl)c(F)c12        54

----------
Test: In vitro half-life in liver microsomes, dog
Assay type: in vitro ADME
Conditions: microsomes, up to one hour, longer half-lives are extrapolated, n=1
Measured half-life at 1 μM, listed per entry for reference.
quantity.kind: half-life at 1 μM (min)

> print(dat)
                                   compound  observed
1  COP(=O)(c1cc(C)cc(/C=C/C#N)c1)c1c(C(N)=O)[nH]c2ccc(Cl)cc12 (racemic)       257
2  COP(=O)(c1cc(C)cc(/C=C/C#N)c1)c1c(C(N)=O)[nH]c2ccc(Cl)c(F)c12 (racemic)       287
3  CO[P@](=O)(c1cc(C)cc(/C=C/C#N)c1)c1c(C(N)=O)[nH]c2ccc(Cl)c(F)c12      19.3

----------
Measured IC50, listed per entry for reference.
Target: HIV-1 RT E138K mutant enzyme (Human immunodeficiency virus type 1 group M subtype B, UniProt P03366, E737K)
Construct: Antiviral in vitro activity against site-directed mutant HIV-1 RT enzymes
Test: biochemical
quantity.kind: IC50 (µM)

> print(dat)
                                   compound  observed
1  CO[P@](=O)(c1cc(C)cc(/C=C/C#N)c1)c1c(C(N)=O)[nH]c2ccc(Cl)cc12 [Compound III]      2.99
2  CO[P@](=O)(c1cc(C)cc(/C=C/C#N)c1)c1c(C(N)=O)[nH]c2ccc(Cl)c(F)c12 [Compound I]      4.67

----------
Target: CYP2C9 (Homo sapiens)
Sequence (P11712 whole entry): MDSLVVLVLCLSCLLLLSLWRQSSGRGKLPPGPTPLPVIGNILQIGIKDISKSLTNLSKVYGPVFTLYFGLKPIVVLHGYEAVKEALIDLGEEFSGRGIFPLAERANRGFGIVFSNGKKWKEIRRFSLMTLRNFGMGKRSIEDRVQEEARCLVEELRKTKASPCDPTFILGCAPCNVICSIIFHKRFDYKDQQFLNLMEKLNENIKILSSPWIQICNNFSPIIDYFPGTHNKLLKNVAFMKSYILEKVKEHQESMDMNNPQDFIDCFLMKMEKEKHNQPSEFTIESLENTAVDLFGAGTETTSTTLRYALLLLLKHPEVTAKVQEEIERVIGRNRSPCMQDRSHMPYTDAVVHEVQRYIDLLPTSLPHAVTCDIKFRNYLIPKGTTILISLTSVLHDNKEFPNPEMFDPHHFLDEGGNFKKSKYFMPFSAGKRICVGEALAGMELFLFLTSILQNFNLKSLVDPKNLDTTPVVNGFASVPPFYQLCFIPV
Assay: Human liver microsomal CYP450 inhibition, CYP2C9
Conditions: human, pooled human liver microsomes, probe diclofenac
quantity.kind: Ki (nM)

> print(dat)
                                   compound  observed
1  CO[P@](=O)(c1cc(C)cc(/C=C/C#N)c1)c1c(C(N)=O)[nH]c2ccc(Cl)c(F)c12 [Compound I]      1450

----------
Assay: In vitro half-life in liver microsomes, monkey
Assay type: in vitro ADME
Conditions: liver microsomes, up to one hour, n=1
quantity.kind: half-life at 1 μM (min)

> print(dat)
                                   compound  observed
1  CO[P@](=O)(c1cc(C)cc(/C=C/C#N)c1)c1c(C(N)=O)[nH]c2ccc(Cl)cc12 [Compound III]      12.6

----------
Tested on: HIV-1 IIIB in H9 cells
Assay: Drug susceptibility assay, IIIB in H9 cells
Format: cell-based
Details: Human immunodeficiency virus 1, IIIB, H9, read-out: Average EC50 Values ± Standard Deviation, host H9, virus IIIB
quantity.kind: EC50 (nM)

> print(dat)
                         compound.structure  quantity.kind  observed
1  CO[P@](=O)(c1cc(C)cc(/C=C/C#N)c1)c1c(C(N)=O)[nH]c2ccc(Cl)c(F)c12           EC50       0.6
